Taken from ChEMBL document CHEMBL3352105.

Assay explanation: Cytotoxicity against human HL60 cells after 72 hrs by MTT assay
Assay type: functional, cell-based
Condition label: HL-60, 72 h
pIC50: −log10 of the molar value.
Returns one of yes or no; yes when pIC50 is >= 6.

Compound: O=C(/C=C/c1ccccc1)O[C@@H]1[C@H]2OC(=O)C[C@H]2O[C@@H]1[C@@H](O)c1ccccc1
Class: yes

Compound: O=C(/C=C/c1ccccc1)O[C@H](c1ccccc1)[C@H]1O[C@@H]2CC(=O)O[C@@H]2[C@H]1O [(+)-CRASSALACTONE C]
Class: no

Compound: O=C(/C=C/c1ccccc1)O[C@@H]1[C@H]([C@@H](O)c2ccccc2)O[C@H]2CC(=O)O[C@@H]12 [(+)-CRASSALACTONE B]
Class: no

Compound: O=C(/C=C/c1ccc(F)cc1)O[C@@H]1[C@H]2OC(=O)C[C@H]2O[C@@H]1[C@@H](O)c1ccccc1
Class: no

Compound: O=C(/C=C/c1ccc(F)cc1)O[C@@H]1[C@H]2OC(=O)C[C@H]2O[C@@H]1[C@H](O)c1ccccc1
Class: no

## Input Check the entry "O=C(/C=C/c1ccc([N+](=O)[O-])cc1)O[C@H](c1ccccc1)[C@H]1O[C@@H]2CC(=O)O[C@@H]2[C@H]1O" : does pIC50 equal or exceed 6?
## Output no

## Input How about "O=C(/C=C/c1ccc([N+](=O)[O-])cc1)O[C@@H]1[C@H]2OC(=O)C[C@H]2O[C@@H]1[C@@H](O)c1ccccc1" ?
## Output yes

## Input Also "O=C(/C=C/c1ccc([N+](=O)[O-])cc1)O[C@@H]1[C@H]2OC(=O)C[C@H]2O[C@@H]1[C@H](O)c1ccccc1" ?
## Output no

----------
Tested on: Raji
Assay explanation: Cytotoxicity against human Raji cells after 72 hrs by MTT assay
Format: functional, cell-based
Parameter: IC50 (µM)
# output: bare number, implied unit µM

Worked examples follow.
Molecule: O=C(/C=C/c1ccc([N+](=O)[O-])cc1)O[C@H](c1ccccc1)[C@H]1O[C@@H]2CC(=O)O[C@@H]2[C@H]1O
Readout number: 16.4
--
Molecule: O=C(/C=C/c1ccc([N+](=O)[O-])cc1)O[C@@H](c1ccccc1)[C@H]1O[C@@H]2CC(=O)O[C@@H]2[C@H]1O
Readout number: 4.36
--
Molecule: O=C(/C=C/c1ccc([N+](=O)[O-])cc1)O[C@@H]1[C@H]2OC(=O)C[C@H]2O[C@@H]1[C@@H](O)c1ccccc1
Readout number: 1.02
--
Molecule: O=C(/C=C/c1ccccc1)O[C@@H](c1ccccc1)[C@H]1O[C@@H]2CC(=O)O[C@@H]2[C@H]1O
Readout number: 1.31
--
Molecule: O=C(/C=C/c1ccc([N+](=O)[O-])cc1)O[C@@H]1[C@H]2OC(=O)C[C@H]2O[C@@H]1[C@H](O)c1ccccc1
Readout number: 8.23
--
Molecule: O=C(/C=C/c1ccccc1)OC1C2OC(=O)CC2O[C@@H]1Cc1ccccc1 (single isomer, unassigned)
Readout number: 0.88
--
Molecule: COc1ccc(/C=C/C(=O)OC2C3OC(=O)CC3O[C@@H]2Cc2ccccc2)cc1 (single isomer, unassigned)
Readout number: 3.58
--
Molecule: O=C(/C=C/c1ccccc1)O[C@@H]1[C@H]2OC(=O)C[C@H]2O[C@@H]1[C@H](OC(=O)/C=C/c1ccccc1)c1ccccc1
Readout number: 11

## Input Consider the molecule shown here: "COc1ccc(/C=C/C(=O)O[C@@H]2[C@H]3OC(=O)C[C@H]3O[C@@H]2[C@@H](O)c2ccccc2)cc1" What is its recorded IC50?
## Output 2.34

## Input Would you kindly repeat that for O=C(/C=C/c1ccc([N+](=O)[O-])cc1)OC1C2OC(=O)CC2O[C@@H]1Cc1ccccc1 (single isomer, unassigned) ?
## Output 2.69

## Input Cool, now "COc1ccc(/C=C/C(=O)O[C@@H]2[C@H]3OC(=O)C[C@H]3O[C@@H]2[C@H](O)c2ccccc2)cc1"
## Output 5.69

----------
System: Raji
Assay explanation: Cytotoxicity against human Raji cells after 72 hrs by MTT assay
Type: functional, cell-based
Parameter: pIC50
Scale for pIC50: -log10 of concentration given in mol/L; no unit attached.

The cases that follow already have their pIC50 on record.
Compound: O=C(/C=C/c1ccc(F)cc1)OC1C2OC(=O)CC2O[C@@H]1Cc1ccccc1 (single isomer, unassigned)
pIC50: 5.82

Compound: O=C(/C=C/c1ccccc1)O[C@@H]1[C@H]2OC(=O)C[C@H]2O[C@@H]1[C@@H](OC(=O)/C=C/c1ccccc1)c1ccccc1
pIC50: 4.99

## Input Look up pIC50 for this compound: "COc1ccc(/C=C/C(=O)O[C@@H](c2ccccc2)[C@H]2O[C@@H]3CC(=O)O[C@@H]3[C@H]2O)cc1"
## Output 5.07
